Entries and their measured pIC50 follow.
Target: Avi-KRAS WT (1-169) GppNHp/RAF1 RBD-3xFLAG (52-151) (Homo sapiens)
Construct: Avi-KRAS WT (1-169)
Sequence (P01116 1-169 isoform P01116-2): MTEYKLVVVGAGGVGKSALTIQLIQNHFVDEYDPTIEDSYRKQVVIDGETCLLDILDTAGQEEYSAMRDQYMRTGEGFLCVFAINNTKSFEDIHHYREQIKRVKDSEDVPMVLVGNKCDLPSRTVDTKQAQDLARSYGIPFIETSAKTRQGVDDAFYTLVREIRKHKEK
Experiment: Raf1-KRAS WT-GppNHP disruption HTRF assay (Biological Example 1)
Type: binding
Details: KRAS WT-GppNHp/RAF1 RBD HTRF
pIC50: −log10 of the molar value.
Parameter Measured: pIC50

{"Compound": "CCC(=O)N1CC(N(C)c2nc(OCC34CCCN3CC(F)C4)nc3c(F)c(-c4ccc(F)c5sc(N)c(C#N)c45)c(C(F)(F)F)cc23)CC1C (centres unmarked)", "Endpoint Value": "6.00 to 7.00"}
{"Compound": "CC(C)C(=O)N1C[C@@H](N(C)c2nc(OC[C@@]34CCCN3C[C@H](F)C4)nc3c(F)c(-c4ccc(F)c5sc(N)c(C#N)c45)c(C(F)(F)F)cc23)C[C@@H]1C", "Endpoint Value": "5.00 to 6.00"}
{"Compound": "CCN(c1nc(OC[C@@]23CCCN2C[C@H](F)C3)nc2c(F)c(-c3ccc(F)c4sc(N)c(C#N)c34)c(C(F)(F)F)cc12)[C@H]1CCN(C(=O)c2ccon2)C1 (atropisomer, axis not shown)", "Endpoint Value": "> 7.00"}
{"Compound": "CC(=O)N1C[C@H](O)[C@@H](N(C)c2nc(OC[C@@]34CCCN3C[C@H](F)C4)nc3c(F)c(-c4ccc(F)c5sc(N)c(C#N)c45)c(C(F)(F)F)cc23)C1", "Endpoint Value": "6.00 to 7.00"}
{"Compound": "C[C@@H]1[C@H](N(C)c2nc(OC[C@@]34CCCN3C[C@H](F)C4)nc3c(F)c(-c4ccc(F)c5sc(N)c(C#N)c45)c(C(F)(F)F)cc23)CCN1C(=O)C1(C)CC1", "Endpoint Value": "6.00 to 7.00"}

---

Target: Avi-KRAS G12D (2-169) GTP/RAF1 RBD-3xFLAG (51-131) (Homo sapiens, UniProt P01116, G12D)
Construct: Avi-KRAS G12D (2-169)
Sequence (P01116 2-169 isoform P01116-2 G12D): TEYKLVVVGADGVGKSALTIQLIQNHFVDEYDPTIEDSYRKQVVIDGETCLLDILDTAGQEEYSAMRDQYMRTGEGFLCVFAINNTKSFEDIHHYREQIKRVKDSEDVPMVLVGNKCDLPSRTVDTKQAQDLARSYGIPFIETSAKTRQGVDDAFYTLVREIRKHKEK
Assay: Raf1-KRAS G12D-GTP disruption HTRF assay (Biological Example 3)
Format: binding
Details: KRAS G12D, GTP-loaded

{"Compound": "CCN(c1nc(OC[C@@]23CCCN2C[C@H](F)C3)nc2c(F)c(-c3ccc(F)c4sc(N)c(C#N)c34)c(C(F)(F)F)cc12)[C@H]1C[C@H](C)N(C(=O)[C@@H]2CCO2)C1 (atropisomer, axis not shown) [Compound 922]", "Tested Target": "Avi-KRAS G12D (2-169) GTP/RAF1 RBD-3xFLAG (51-131) (Homo sapiens, UniProt P01116, G12D)", "IC50": "≤ 100 nM"}
{"Compound": "CCN(c1nc(OC[C@@]23CCCN2C[C@H](F)C3)nc2c(F)c(-c3ccc(F)c4sc(N)c(C#N)c34)c(C(F)(F)F)cc12)[C@H]1C[C@H](C)N(C(=O)OC2COC2)C1 (atropisomer, axis not shown) [Compound 926]", "Tested Target": "Avi-KRAS G12D (2-169) GTP/RAF1 RBD-3xFLAG (51-131) (Homo sapiens, UniProt P01116, G12D)", "IC50": "100 to 1000 nM"}
{"Compound": "CCN(c1nc(OC[C@@]23CCCN2C[C@H](F)C3)nc2c(F)c(-c3ccc(F)c4sc(N)c(C#N)c34)c(C(F)(F)F)cc12)[C@H]1CC[C@](C)(C(=O)N(C)C)C1 (atropisomer, axis not shown) [Compound 894]", "Tested Target": "Avi-KRAS G12D (2-169) GTP/RAF1 RBD-3xFLAG (51-131) (Homo sapiens, UniProt P01116, G12D)", "IC50": "1000 to 10000 nM"}
{"Compound": "CCN(c1nc(OC[C@@]23CCCN2C[C@H](F)C3)nc2c(F)c(-c3ccc(F)c4sc(N)c(C#N)c34)c(C(F)(F)F)cc12)[C@@H]1CCN(C(=O)C2CC2)[C@@H]1C (atropisomer, axis not shown) [Compound 524]", "Tested Target": "Avi-KRAS G12D (2-169) GTP/RAF1 RBD-3xFLAG (51-131) (Homo sapiens, UniProt P01116, G12D)", "IC50": "≤ 100 nM"}
{"Compound": "CCN(c1nc(OC[C@@]23CCCN2C[C@H](F)C3)nc2c(F)c(-c3ccc(F)c4sc(N)c(C#N)c34)c(C(F)(F)F)cc12)[C@H]1C[C@H]2[C@H](C)N(C)C(=O)N2C1 (atropisomer, axis not shown) [Compound 863]", "Tested Target": "Avi-KRAS G12D (2-169) GTP/RAF1 RBD-3xFLAG (51-131) (Homo sapiens, UniProt P01116, G12D)", "IC50": "≤ 100 nM"}
{"Compound": "CCN(c1nc(OC[C@@]23CCCN2C[C@H](F)C3)nc2c(F)c(-c3ccc(F)c4sc(N)c(C#N)c34)c(C(F)(F)F)cc12)[C@@H]1CCN(C(C)=O)C1 [Compound 268]", "Tested Target": "Avi-KRAS G12D (2-169) GTP/RAF1 RBD-3xFLAG (51-131) (Homo sapiens, UniProt P01116, G12D)", "IC50": "100 to 1000 nM"}
{"Compound": "[2H]C1([2H])O[C@@H]2C[C@H]1N(c1nc(OC[C@@]34CCCN3C[C@H](F)C4)nc3c(F)c(-c4ccc(F)c5sc(N)c(C#N)c45)c(C(F)(F)F)cc13)C2 [Compound 371]", "Tested Target": "Avi-KRAS G12D (2-169) GTP/RAF1 RBD-3xFLAG (51-131) (Homo sapiens, UniProt P01116, G12D)", "IC50": "100 to 1000 nM"}
{"Compound": "N#Cc1c(N)sc2c(F)ccc(-c3c(C(F)(F)F)cc4c(N5CCCOCC5)nc(OC[C@@]56CCCN5C[C@H](F)C6)nc4c3F)c12 [Compound 232]", "Tested Target": "Avi-KRAS G12D (2-169) GTP/RAF1 RBD-3xFLAG (51-131) (Homo sapiens, UniProt P01116, G12D)", "IC50": "100 to 1000 nM"}
{"Compound": "CCN(c1nc(OC[C@@]23CCCN2C[C@H](F)C3)nc2c(F)c(-c3ccc(F)c4sc(N)c(C#N)c34)c(C(F)(F)F)cc12)[C@H]1C[C@H](COC)N(C(=O)N2CC(OC)C2)C1 (atropisomer, axis not shown) [Compound 839]", "Tested Target": "Avi-KRAS G12D (2-169) GTP/RAF1 RBD-3xFLAG (51-131) (Homo sapiens, UniProt P01116, G12D)", "IC50": "100 to 1000 nM"}
{"Compound": "CCN(c1nc(OC[C@@]23CCCN2C[C@H](F)C3)nc2c(F)c(-c3ccc(F)c4sc(N)c(C#N)c34)c(C(F)(F)F)cc12)[C@H]1CCN(C(=O)C(C)C)C1 (single isomer, unassigned) [Compound 469]", "Tested Target": "Avi-KRAS G12D (2-169) GTP/RAF1 RBD-3xFLAG (51-131) (Homo sapiens, UniProt P01116, G12D)", "IC50": "≤ 100 nM"}
{"Compound": "CCN(c1nc(OC[C@@]23CCCN2C[C@H](F)C3)nc2c(F)c(-c3ccc(F)c4sc(N)c(C#N)c34)c(C(F)(F)F)cc12)[C@H]1CCN(C(=O)OCC2COC2)[C@@H]1C (atropisomer, axis not shown) [Compound 835]", "Tested Target": "Avi-KRAS G12D (2-169) GTP/RAF1 RBD-3xFLAG (51-131) (Homo sapiens, UniProt P01116, G12D)", "IC50": "100 to 1000 nM"}
{"Compound": "CO[C@H](C)C(=O)N1CC[C@H](N(c2nc(OC[C@@]34CCCN3C[C@H](F)C4)nc3c(F)c(-c4ccc(F)c5sc(N)c(C#N)c45)c(C(F)(F)F)cc23)C2CC2)C1 (atropisomer, axis not shown) [Compound 826]", "Tested Target": "Avi-KRAS G12D (2-169) GTP/RAF1 RBD-3xFLAG (51-131) (Homo sapiens, UniProt P01116, G12D)", "IC50": "100 to 1000 nM"}
{"Compound": "CCN(c1nc(OC[C@@]23CCCN2C[C@H](F)C3)nc2c(F)c(-c3ccc(F)c4sc(N)c(C#N)c34)c(C(F)(F)F)cc12)[C@H]1CCCN(C)C1=O (atropisomer, axis not shown) [Compound 967]", "Tested Target": "Avi-KRAS G12D (2-169) GTP/RAF1 RBD-3xFLAG (51-131) (Homo sapiens, UniProt P01116, G12D)", "IC50": "100 to 1000 nM"}
{"Compound": "CCN(c1nc(OC[C@@]23CCCN2C[C@H](F)C3)nc2c(F)c(-c3ccc(F)c4sc(N)c(C#N)c34)c(C(F)(F)F)cc12)[C@H]1CCN(C(=O)CC(F)F)C1 (atropisomer, axis not shown) [Compound 611]", "Tested Target": "Avi-KRAS G12D (2-169) GTP/RAF1 RBD-3xFLAG (51-131) (Homo sapiens, UniProt P01116, G12D)", "IC50": "≤ 100 nM"}
{"Compound": "CCN(c1nc(OC[C@@]23CCCN2C[C@H](F)C3)nc2c(F)c(-c3ccc(F)c4sc(N)c(C#N)c34)c(C(F)(F)F)cc12)[C@H]1C[C@H](C)N(C(=O)c2cocn2)C1 (atropisomer, axis not shown) [Compound 914]", "Tested Target": "Avi-KRAS G12D (2-169) GTP/RAF1 RBD-3xFLAG (51-131) (Homo sapiens, UniProt P01116, G12D)", "IC50": "100 to 1000 nM"}
{"Compound": "CCN(c1nc(OC[C@@]23CCCN2C[C@H](F)C3)nc2c(F)c(-c3ccc(F)c4sc(N)c(C#N)c34)c(C(F)(F)F)cc12)[C@H]1C[C@H]2CN(C)C(=O)N2C1 (atropisomer, axis not shown; (aS)) [Compound 543]", "Tested Target": "Avi-KRAS G12D (2-169) GTP/RAF1 RBD-3xFLAG (51-131) (Homo sapiens, UniProt P01116, G12D)", "IC50": "≤ 100 nM"}
{"Compound": "CCN(c1nc(OC[C@@]23CCCN2C[C@H](F)C3)nc2c(F)c(-c3ccc(F)c4sc(N)c(C#N)c34)c(C(F)(F)F)cc12)[C@@H]1CCN(c2ccccn2)C1 [Compound 945]", "Tested Target": "Avi-KRAS G12D (2-169) GTP/RAF1 RBD-3xFLAG (51-131) (Homo sapiens, UniProt P01116, G12D)", "IC50": "1000 to 10000 nM"}
{"Compound": "CCN(c1nc(OC[C@@]23CCCN2C[C@H](F)C3)nc2c(F)c(-c3ccc(F)c4sc(N)c(C#N)c34)c(C(F)(F)F)cc12)[C@H]1CCN(C(=O)[C@@H]2C[C@H]2F)[C@@H]1C (atropisomer, axis not shown) [Compound 892]", "Tested Target": "Avi-KRAS G12D (2-169) GTP/RAF1 RBD-3xFLAG (51-131) (Homo sapiens, UniProt P01116, G12D)", "IC50": "100 to 1000 nM"}
